Biological target: G-Quadruplex 5′-TAGGG(TTAGGG)3-3′
Experiment: Fluorescence emission titration with G-Quadruplex
Conditions: read-out: equilibrium dissociation constant (KD); from change in fluorescence emission maxima of G-Quadruplex
measuredProperty: pKd
Answers are plain numbers, as −log10 of the molar value.

Per the records, this compound ( CN(CCC#N)c1ccc(C=NCCCN=Cc2ccc(N(C)CCC#N)cc2)cc1 [M2] ) has pKd equal to 4.51
